All figures here come from PubChem BioAssay (NCI).

experimental details: NCI Yeast Anticancer Drug Screen. Data for the rad18 strain (AID 177)
test context: S. cerevisiae rad18 mutant growth inhibition; at 11.0 µM; stronger effect = higher value
The panel holds about 79,000 compounds, 15% with a hit somewhere; the sample as a whole holds those more often.
metric name: growth inhibition (%)
Number only, in %; omit the unit.

These solved cases illustrate the format of a correct answer.
• O=C(NCCCCN(CCCNC(=O)C(F)(F)F)Cc1ccccc1)C(F)(F)F = 21
• ClCCCOc1c(Cl)cc(Cl)cc1Cl = 12
• c1ccc2nc3c(nc2c1)sc1ccccc13 = 45
• Nc1cc2ccccc2cc1N = -16
• CCOP(=O)(OCC)/C(C#N)=C/c1ccc(-c2ccc(F)cc2F)o1 = -2

Proceeding to the next compound to report its growth inhibition.
Memo: O=C1CSC(c2ccccc2)N1c1ccc(-c2ccc(-n3c(-c4ccccc4)nc4ccccc4c3=O)cc2)cc1 (stereo unspecified) , reported growth inhibition: 8

###

experimental details: NCI Yeast Anticancer Drug Screen. Data for the mgt1 strain (AID 153)
test context: S. cerevisiae mgt1 mutant growth inhibition; at 1.2 µM; stronger effect = higher value
About 79,000 compounds went through this panel and 15% of them were active in at least one assay; those are over-represented in the sample as a whole.
metric name: growth inhibition (%)
Number only, in %; omit the unit.

These solved cases illustrate the format of a correct answer.
• O=C(Oc1ccc([N+](=O)[O-])cc1)c1ccc([N+](=O)[O-])cc1 = 0
• c1ccc2c(c1)N=C1CCCC3CCCC123 (centres undefined) = 1
• O=C(O)/C=C\C(=O)Nc1ccc2c(c1)Cc1cc(Cl)ccc1-2 = -3
• CC(/C=C/c1ccc([N+](=O)[O-])o1)=N/N1CC(CN2CCOCC2)OC1=O (centres undefined) = -2
• COc1cc2c(cc1O)[C@H](C)C(c1ccccc1OC)O2 (some centres undefined) = 1
• CCN(CC)CCNc1ccc2ncn3c4ccc(O)cc4c(=O)c1c23 = -3

Memo: "CC(C)NCCCNc1c2ccccc2nc2cccc([N+](=O)[O-])c12" , reported growth inhibition: -1

Memo: "CN(C)N=Nc1ccc(N(C)C)cc1" , reported growth inhibition: -3

Memo: "COc1ccc(-c2cc(-c3cc(C)cc(Cl)c3O)nc3[nH]c(=S)[nH]c(=S)c23)cc1" , reported growth inhibition: -1

Memo: "CCC(/C=C/c1ccccc1)=N\Nc1ccc(Cl)cc1" , reported growth inhibition: -4

Memo: "CCCCCCCCNCCCCCCCC" , reported growth inhibition: 12

Memo: "O=C1Nc2ccc(Br)cc2C1=Nc1ccc(Cl)cc1" , reported growth inhibition: -52

Memo: "O=C(NO)c1coc2ccccc2c1=O" , reported growth inhibition: -2

Memo: "CC(C)(C)c1ccc2c(c1)C(=O)c1ccccc1C2=O" , reported growth inhibition: -3

Memo: "CCOC(=O)/C(=C/c1cccc(Cl)c1)N(CC)CC" , reported growth inhibition: 8

Memo: "CCCNC(=O)OCc1c(COC(=O)NCCC)c(-c2ccc(Cl)c(Cl)c2)n2c1CCC2" , reported growth inhibition: -48

Memo: "COc1ccc(N=c2cc(-c3ccccc3)oc3ccccc23)cc1" , reported growth inhibition: 0

###

experimental details: NCI Yeast Anticancer Drug Screen. Data for the rad50EPP+ strain (AID 151);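 note: 0% = growth of vehicle-treated control cultures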
test context: S. cerevisiae rad50 mutant strain, at 100.0 µM, stronger effect = higher value
The panel holds about 79,000 compounds, 15% with a hit somewhere; the sample as a whole holds those more often. The source made the active and inactive calls. Rule as the data show it: active = growth inhibition above about 70%; inactive = the rest.
Item-by-item account of growth inhibition

* C[C@H](CCC1=NC(C)(C)CO1)C1CCC2[C@@H]3C(O)C[C@@H]4CC(O)CC[C@]4(C)C3CC[C@@]21C (stereo partly drawn) | 25% (inactive)
* COc1ccc2nc(CCc3ccccc3)ccc2c1 | 34% (inactive)
* CC(/C=C/c1ccc([N+](=O)[O-])o1)=N/N1CC(CN2CCOCC2)OC1=O (stereo not drawn) | 76% (active)
* COc1ccc(C(OCC2OC(n3cnc4c(=O)n(Cc5ccccc5[N+](=O)[O-])nnc43)C(O)C2O)(c2ccccc2)c2ccc(OC)cc2)cc1 (stereo not drawn) | -15% (inactive)
* O=C1C[C@H]2[C@H](c3ccc(Br)cc3)[C@H]3C(=O)c4ccccc4NC(=O)[C@@H]3[C@@]2(O)c2ccccc2N1 | 3% (inactive)

Memo: "O=C(C#Cc1ccccc1)/C=C/c1ccccc1" , reported growth inhibition: 94% (active)

Memo: "CCN(CC)CC(=O)c1ccc2cc(Cl)c3ccccc3c2c1" , reported growth inhibition: 98% (active)

Memo: CC1=CN2C(c3ccccc3)=NON(c3ccc(C)cn3)C2C=C1 (stereo not drawn) , reported growth inhibition: -11% (inactive)

Memo: "CCN(CC)C(=S)N/N=C(\C)c1ccccc1O" , reported growth inhibition: 83% (active)

Memo: COc1ccc2c(c1)CCCC(Br)C2=O (stereo not drawn) , reported growth inhibition: 97% (active)

Memo: "C[N+](C)([O-])CCCNc1c2ccccc2nc2cccc([N+](=O)[O-])c12" , reported growth inhibition: 95% (active)

Memo: "Cc1ccc(Nc2n[nH]c(=S)s2)c(C)c1" , reported growth inhibition: 51% (inactive)

###

experimental details: NCI Yeast Anticancer Drug Screen. Data for the rad18 strain (AID 177)
test context: S. cerevisiae rad18 mutant growth inhibition; at 11.0 µM
Compounds without any hit were thinned out: in the full panel of roughly 79,000, 15% have a hit. Activity calls are given as the source filed them. Rule as the data show it: active = growth inhibition above about 70%; inactive = the rest.
Form entry, call: pick from class 1 (active), class 0 (inactive)

Solved entries:
* CCCCCCNCCCNc1c2cc(OC)ccc2nc2cccc([N+](=O)[O-])c12 | class 1
* C[n+]1c(-c2ccc(/C=N/NC(=O)c3ccc(C(=O)N/N=C/c4ccc(-c5cn6ccccc6[n+]5C)cc4)cc3)cc2)cn2ccccc21 | class 0
* CC1=CC(C)(C)SC(SSSC2=NC(C)=CC(C)(C)S2)=N1 | class 0
* COc1ccc2nc3cccc([N+](=O)[O-])c3c(NCCCCCC(=O)O)c2c1 | class 1

Now consider a different compound.
stdin: Given "CCN(CC)CCC(=O)Nc1ccc2sc3ccccc3c(=O)c2n1" , state the outcome it received in this test.
stdout: class 0

###

experimental details: NCI Yeast Anticancer Drug Screen. Data for the sgs1 strain (AID 173);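 note: 0% = growth of vehicle-only control cultures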
test context: S. cerevisiae sgs1 mutant, at 100.0 µM
This is part of a sample that, as a whole, favours compounds with a hit. Of some 79,000 tested, about 15% had one in any assay. Calls of active or inactive are those of the source. No stated cut-off is given here; in the data, active means growth inhibition above about 70%; inactive means the rest.
Form entry, call: pick from active, inactive

Solved entries:
• COc1ccc2cc(C(C)C(=O)N3CCOC3=O)ccc2c1 (stereo unspecified) = inactive
• CC(C)Cc1ncc(CCCN=C(N)N)[nH]c1=O = inactive
• CN(C)CC1=Nc2cccc3cccc(c23)N1 = inactive
• CCN(CC)CC(=O)c1ccc2cc(Cl)c3ccccc3c2c1 = active
• S=C(NCc1ccccn1)N/N=C/c1ccccn1 = active

Now consider a different compound.
stdin: Given "CCS(=O)(=O)Nc1ccc(Nc2c3ccccc3nc3ccccc23)c(OC)c1" , state the outcome it received in this test.
stdout: active

###

experimental details: NCI Yeast Anticancer Drug Screen. Data for the mec2-1 strain (AID 157)
test context: S. cerevisiae mec2-1 strain, at 50.0 µM, stronger effect = higher value
This is part of a sample that, as a whole, favours compounds with a hit. Of some 79,000 tested, about 15% had one in any assay.
Item-by-item account of growth inhibition
Number only, in %; omit the unit.

These solved cases illustrate the format of a correct answer.
• O=[N+]([O-])/C=C/c1cc2ccc3ccccc3c2[nH]1 = 98.8
• CC(C)C(c1ccccc1)c1ccccc1 = 49.4
• O=[N+]([O-])c1cc(Cl)ccc1S(=O)(=O)c1ccc(Cl)cc1[N+](=O)[O-] = 83
• CC1=NN(C(=O)CC(=O)NC(=O)/C=C\c2ccccc2)C(=O)C1N=Nc1ccc([N+](=O)[O-])cc1 (stereo not given) = 77.5
• COc1cc2c(cc1OC)[C@@H](Nc1ccc(C#N)cc1)C1COC(=O)[C@@H]1C2c1cc(OC)c(O)c(OC)c1 (stereo not given in full) = 91.5

Memo: O=C1c2ccccc2N2OC3(N4CCCC4)CCCCC3C12c1ccccc1 (stereo not given) , reported growth inhibition: 24.9

Memo: "O=C1C[C@H]2[C@H](c3ccc(Br)cc3)[C@H]3C(=O)c4ccccc4NC(=O)[C@@H]3[C@@]2(O)c2ccccc2N1" , reported growth inhibition: 97.8

Memo: "O=C(CCCN1CCC(Nc2ccc(F)cc2)(c2nnnn2C2CCCCC2)CC1)c1ccc(F)cc1" , reported growth inhibition: 27.1

Memo: CC1CCC(C2=CSC3CCCCC3N2)CC1 (stereo not given) , reported growth inhibition: 56.5

Memo: Cc1ccc(NC(=O)CCC(=O)C(C)C(=O)c2ccccc2)c(C)c1 (stereo not given) , reported growth inhibition: -1.6

###

experimental details: NCI Yeast Anticancer Drug Screen. Data for the mec2-1 strain (AID 157)
test context: S. cerevisiae mec2-1 strain, at 5.0 µM (retest, dose inferred, filed as 0.5), stronger effect = higher value
The panel holds about 79,000 compounds, 15% with a hit somewhere; the sample as a whole holds those more often.
Item-by-item account of growth inhibition
Number only, in %; omit the unit.

These solved cases illustrate the format of a correct answer.
- CCCCCCCCSC1=C(Cl)C(=O)C(OC)=C(OC)C1=O: 24
- Nc1cc2ccccc2cc1N: 4
- CC1=CN2C(c3ccccc3)=NON(c3ccc(C)cn3)C2C=C1 (stereo unspecified): -24
- Clc1ccc(/C(=C\c2ccccc2)Cn2ccnc2)cc1: -14
- CC(=O)NC(c1nc2cc(C)c(C)cc2[nH]1)c1nc2cc(C)c(C)cc2[nH]1: 36
- CCCCCCCCCCCCOCCOCCOCC(N)=O: 39

Memo: "Cc1ccc([N+](=O)[O-])c2c(NCCC[N+](C)(C)[O-])c3ccccc3nc12" , reported growth inhibition: 11

Memo: "CC1(C)CC(=O)C(C=NC(=S)C(N)=S)=C(O)C1" , reported growth inhibition: -6

Memo: "CCCCCCCCCCCCCCCCCCNC(=S)/N=C/c1c(O)c2ccccc2[nH]c1=O" , reported growth inhibition: -5

Memo: "O=[N+]([O-])c1cc(Cl)ccc1S(=O)(=O)c1ccc(Cl)cc1[N+](=O)[O-]" , reported growth inhibition: 4

Memo: COc1cc2c(cc1O)[C@H](C)C(c1ccccc1OC)O2 (stereo partly specified) , reported growth inhibition: -44
